Test system: Kasumi1 AML cell line
Experiment notes: AML cell viability, CellTiter-Glo combination matrix, Kasumi1
Type: cell-based
Measurement conditions: Homo sapiens, Kasumi 1, Kasumi1 cells, venetoclax alone; read-out: IC50 of venetoclax
Quantity name: pIC50
Would you please state pIC50, meaning minus log10 of the concentration in mol/L, as a bare number?

Query block: Give the reported value of pIC50 for this record: CC1(C)CCC(CN2CCN(c3ccc(C(=O)NS(=O)(=O)c4ccc(NCC5CCOCC5)c([N+](=O)[O-])c4)c(Oc4cnc5[nH]ccc5c4)c3)CC2)=C(c2ccc(Cl)cc2)C1
Result block: 6.62
